Assayed System: CD133 (Homo sapiens)
Sequence (O43490 20-865): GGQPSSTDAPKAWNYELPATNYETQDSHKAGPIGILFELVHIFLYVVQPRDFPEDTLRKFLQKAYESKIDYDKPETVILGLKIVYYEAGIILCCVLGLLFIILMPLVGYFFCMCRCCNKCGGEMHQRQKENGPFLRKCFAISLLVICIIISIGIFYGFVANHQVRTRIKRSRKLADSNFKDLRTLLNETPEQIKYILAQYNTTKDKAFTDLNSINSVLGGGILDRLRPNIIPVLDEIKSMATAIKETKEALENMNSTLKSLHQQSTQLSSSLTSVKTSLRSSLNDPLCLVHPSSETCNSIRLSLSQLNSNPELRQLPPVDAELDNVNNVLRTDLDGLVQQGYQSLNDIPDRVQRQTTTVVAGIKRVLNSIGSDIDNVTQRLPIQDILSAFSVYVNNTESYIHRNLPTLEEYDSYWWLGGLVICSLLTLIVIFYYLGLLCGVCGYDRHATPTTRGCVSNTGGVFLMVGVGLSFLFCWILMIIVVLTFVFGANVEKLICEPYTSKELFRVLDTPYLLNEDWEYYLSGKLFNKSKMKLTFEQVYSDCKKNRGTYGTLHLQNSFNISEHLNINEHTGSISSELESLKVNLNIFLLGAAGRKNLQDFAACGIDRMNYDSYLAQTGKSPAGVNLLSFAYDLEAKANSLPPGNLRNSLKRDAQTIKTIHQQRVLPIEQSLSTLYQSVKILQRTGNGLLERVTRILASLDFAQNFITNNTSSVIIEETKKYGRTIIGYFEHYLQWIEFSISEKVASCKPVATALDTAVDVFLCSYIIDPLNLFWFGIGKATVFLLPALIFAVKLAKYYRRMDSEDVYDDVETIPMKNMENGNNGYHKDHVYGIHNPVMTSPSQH
Assay Info: surface plasmon resonance (SPR), single-site fit, […] PA
Test Readout: pKd
As a rule, pKd stands for the negative log10 of the concentration, concentration in M.

// lookup pKd for COc1ccc(C(=O)CCNC(C)=O)c(N)c1
5.14
